Measured IP1 G-protein assay pEC50, listed per entry.
- target-entity: T1, human angiotensin 2 type 1 receptor (human, UniProt P30556 1-359)
- T1 sequence (looked up): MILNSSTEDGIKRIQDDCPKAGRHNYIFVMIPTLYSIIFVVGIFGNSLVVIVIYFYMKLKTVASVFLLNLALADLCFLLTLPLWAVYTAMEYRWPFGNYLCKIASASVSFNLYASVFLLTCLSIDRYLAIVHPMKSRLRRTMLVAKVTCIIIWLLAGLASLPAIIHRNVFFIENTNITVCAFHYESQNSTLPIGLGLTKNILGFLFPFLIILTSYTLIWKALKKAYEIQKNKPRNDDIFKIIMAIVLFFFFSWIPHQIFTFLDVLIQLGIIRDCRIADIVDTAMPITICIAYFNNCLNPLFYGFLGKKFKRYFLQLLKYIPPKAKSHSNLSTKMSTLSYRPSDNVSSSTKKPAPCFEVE
- assay-text: cell-based or functional assay
Where no end group is shown, it is not given here. [ ]: non-standard residue; d: D form. Tle = CC(C)(C)[C@H](N)C(=O)O; Ac6c = NC1(C(=O)O)CCCCC1; Sar = CNCC(=O)O
assay-readout: IP1 G-protein assay pEC50

>>> value_observed("[Sar]RVY[Ac6c]HP[Tle] [SEQ ID NO: 56 (Sar-Arg-Val-Tyr-cyHex-His-Pro-AA02)]")
"< 9.2"
>>> value_observed("[Sar]RVYPHPA [SEQ ID NO: 1 (Sar-Arg-Val-Tyr-Pro-His-Pro-Ala)]")
"> 9.2"
>>> value_observed("[Sar]RVYPHPL [SEQ ID NO: 5 (Sar-Arg-Val-Tyr-Pro-His-Pro-Leu)]")
"< 9.2"
>>> value_observed("[Sar]RVY[Ac6c]HPF [SEQ ID NO: 17 (Sar-Arg-Val-Tyr-cyHex-His-Pro-Phe)]")
"< 9.2"
>>> value_observed("[Sar]RVYPHPF [SEQ ID NO: 10 (Sar-Arg-Val-Tyr-Pro-His-Pro-Phe)]")
"< 9.2"
